- Target Entity: T1, Human CXCR2 (human, UniProt P25025 1-360)
- T1 sequence: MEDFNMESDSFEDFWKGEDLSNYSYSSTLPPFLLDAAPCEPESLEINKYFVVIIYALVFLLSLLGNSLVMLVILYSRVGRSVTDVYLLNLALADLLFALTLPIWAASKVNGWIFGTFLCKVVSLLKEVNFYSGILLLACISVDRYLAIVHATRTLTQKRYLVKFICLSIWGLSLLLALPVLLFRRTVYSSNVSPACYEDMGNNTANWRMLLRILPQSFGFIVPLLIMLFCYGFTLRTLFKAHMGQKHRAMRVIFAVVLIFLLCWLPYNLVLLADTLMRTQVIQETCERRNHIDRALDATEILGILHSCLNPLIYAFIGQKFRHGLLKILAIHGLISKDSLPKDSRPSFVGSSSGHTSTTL
- Method Description: cell-based or functional assay

# Binder, [35S]GTPγS accumulation IC50, IL-8
records = [
    ("CXCR20014 (bispecific antibody, not shown: small tags and cut ends) EVQLVESGGGLVQPGGSLRLSCVASGSIVRINTMGWYRQTPGKQRELVADITSGGNINYIDAVKGRFTISRDNTKNTVYLQMNSLKPEDTAVYYCNAEIVVLVGVWTQRARTGNYWGQGTQVTVSSGGGGSGGGGSGGGGSGGGGSGGGGSGGGGSGGGGSEVQLVESGGELVQPGGSLRLSCAASGSILTINAMGWYRQAPGKQRELVVRRTRGGSTTYQDSVKGRFTISADIAKKTMYLQMNSLKPEDTAVYYCMLDDRGGVYWGQGTQVTVSS", "1.13 nM"),
    ("CXCR20020 (bispecific antibody, not shown: small tags and cut ends) EVQLVESGGGLVQAGESLRLSCAASGSTFDFKVMGWYRQPPGKQREGVAAIRLSGNMHYAESVKGRFTISKANAKNTVYLQMNSLRPEDTAVYYCKVNIRGQDYWGQGTQVTVSSGGGGSGGGGSGGGGSGGGGSGGGGSGGGGSGGGGSEVQLVESGGGLVQAGGSLRLSCAASGRTFSDYAMGWFRQAPGKEREFVAAITWNGGRVFYTASVKGRFTISRDNAKNTMYLQMNSLKPEDTAVYYCAADKDRRTDYLGHPVAYWGQGTQVTVSS", "0.619 nM"),
    ("CXCR20030 (other, not shown: small tags and cut ends) EVQLVESGGGLVQAGGSLRLSCAASGRTFSDYAMGWFRQAPGKEREFVAAITWNGGRVFYTASVKGRFTISRDNAKNTMYLQMNSLKPEDTAVYYCAADKDRRTDYLGHPVAYWGQGTQVTVSSGGGGSGGGGSGGGGSGGGGSGGGGSGGGGSGGGGSEVQLVESGGGLVQAGGSLTLSCAVSGSTFRINTMGWYRRAPGKQRELVAARDRGGYINYVDSVKGRFTVSRDNAKPTMYLQMNSLKPEDTAVYYCHAGTQDRTGRNFDRWGQGTQVTVSS", "1.09 nM"),
    ("CXCR20021 (bispecific antibody, not shown: small tags and cut ends) EVQLVESGGGLVQAGESLRLSCAASGSTFDFKVMGWYRQPPGKQREGVAAIRLSGNMHYAESVKGRFTISKANAKNTVYLQMNSLRPEDTAVYYCKVNIRGQDYWGQGTQVTVSSGGGGSGGGGSGGGGSGGGGSGGGGSGGGGSGGGGSEVQLVESGGGLVQPGGSLRLSCVASGRIFSSNAMGWFRQAPGKEREFVAAITWRSGGSAYYADSAKGRFTISRDNAKNTVYLQMNSLKPEDTAVYYCAAGGSSWLSFPPDYWGQGTQVTVSS", "0.827 nM"),
]
